Biological target: UniProt B3VTJ2
Sequence (B3VTJ2 1-941): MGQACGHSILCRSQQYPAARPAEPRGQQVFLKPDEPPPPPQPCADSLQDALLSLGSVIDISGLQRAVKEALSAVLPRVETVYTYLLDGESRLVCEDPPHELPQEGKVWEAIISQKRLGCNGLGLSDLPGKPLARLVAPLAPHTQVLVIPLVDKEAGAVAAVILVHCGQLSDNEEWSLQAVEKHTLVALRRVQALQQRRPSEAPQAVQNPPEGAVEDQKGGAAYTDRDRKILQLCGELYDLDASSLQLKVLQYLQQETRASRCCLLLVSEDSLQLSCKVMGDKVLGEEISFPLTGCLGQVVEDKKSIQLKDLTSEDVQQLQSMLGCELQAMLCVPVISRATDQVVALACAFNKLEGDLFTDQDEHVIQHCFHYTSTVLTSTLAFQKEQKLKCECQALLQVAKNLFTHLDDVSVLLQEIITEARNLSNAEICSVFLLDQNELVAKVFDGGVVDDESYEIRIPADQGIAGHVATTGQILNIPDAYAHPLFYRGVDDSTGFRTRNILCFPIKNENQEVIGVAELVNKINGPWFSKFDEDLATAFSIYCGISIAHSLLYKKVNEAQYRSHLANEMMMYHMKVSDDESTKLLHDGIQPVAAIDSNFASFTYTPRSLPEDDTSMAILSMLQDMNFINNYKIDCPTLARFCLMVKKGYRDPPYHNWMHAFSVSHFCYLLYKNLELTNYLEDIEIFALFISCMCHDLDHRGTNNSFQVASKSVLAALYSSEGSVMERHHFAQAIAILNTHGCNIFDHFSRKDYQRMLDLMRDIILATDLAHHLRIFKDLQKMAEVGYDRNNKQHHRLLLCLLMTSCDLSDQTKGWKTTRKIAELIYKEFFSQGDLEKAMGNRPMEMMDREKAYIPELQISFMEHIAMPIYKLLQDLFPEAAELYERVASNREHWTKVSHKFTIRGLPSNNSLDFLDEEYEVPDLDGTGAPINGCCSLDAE
Experiment: PDE2 fluorescence polarization (IMAP FP) assay, rhesus PDE2A3
Format: biochemical, rhesus macaque
Details: Lab B, read-out: Rhesus PDE2 Ki (nM) Lab B
measured_endpoint: Ki (nM)

1: CN(C)c1nc2c(c(CF)nn2C(c2ccc(C(C)(F)F)cc2)C2CC2)c(=O)[nH]1 (single isomer, unassigned) [Example 212]
2: CC(C)C(c1ccc(C(C)(F)F)cc1F)n1nc(CO)c2c(=O)[nH]c(N(C)C)nc21 (single isomer, unassigned) [Example 118]
3: CCC(c1ccc(C(F)(F)F)cc1)n1nc(CO)c2c(=O)[nH]c(N(C)C)nc21 (single isomer, unassigned)
Request: Order the entries above from lowest to highest Ki. Thanks in advance for listing the labels in the requested order.
Response: 3, 2, 1
(3: 0.25 nM, 2: 0.44 nM, 1: 0.91 nM)

====

Biological target: UniProtKB B3VTJ2
Test: PDE2 fluorescence polarization (IMAP FP) assay, rhesus PDE2A3
Assay type: biochemical, rhesus macaque
Settings: Lab A, read-out: Rhesus PDE2 Ki (nM) Lab A
measured_endpoint: Ki (nM)

>  <molecule>
CC(c1ccc(C(C)(C)C)cc1)n1nc(CO)c2c(=O)[nH]c(O)nc21 (centres unmarked)

>  <Ki / nM>
51

$$$$

a: Cc1ccc(C(C)n2nc(CF)c3c(=O)[nH]c(O)nc32)cc1 (centres unmarked)
b: CC(c1ccc(OC(F)(F)F)cc1)n1nc(CF)c2c(=O)[nH]c(O)nc21 (centres unmarked)
c: CC(c1ccc(C(F)(F)F)cc1)n1nc(CC(F)(F)F)c2c(=O)[nH]c(O)nc21 (single isomer, unassigned) [Example 256]
d: O=c1[nH]c(O)nc2c1c(CF)nn2C(c1ccc(C(F)(F)F)cc1)C1CC1 (centres unmarked)
e: CC(c1ccc(C(F)(F)F)cc1)n1nc(CC(F)(F)F)c2c(=O)[nH]c(O)nc21 (single isomer, unassigned) [Example 257]
Request: Arrange the 5 molecules by rising Ki, starting with the smallest. Thanks in advance for listing the labels in the requested order.
Response: e, d, b, a, c

====

Target: human PDE2A1 (Homo sapiens (Human), UniProt O00408)
Sequence (O00408 other isoform, or with tags, fused parts or gaps): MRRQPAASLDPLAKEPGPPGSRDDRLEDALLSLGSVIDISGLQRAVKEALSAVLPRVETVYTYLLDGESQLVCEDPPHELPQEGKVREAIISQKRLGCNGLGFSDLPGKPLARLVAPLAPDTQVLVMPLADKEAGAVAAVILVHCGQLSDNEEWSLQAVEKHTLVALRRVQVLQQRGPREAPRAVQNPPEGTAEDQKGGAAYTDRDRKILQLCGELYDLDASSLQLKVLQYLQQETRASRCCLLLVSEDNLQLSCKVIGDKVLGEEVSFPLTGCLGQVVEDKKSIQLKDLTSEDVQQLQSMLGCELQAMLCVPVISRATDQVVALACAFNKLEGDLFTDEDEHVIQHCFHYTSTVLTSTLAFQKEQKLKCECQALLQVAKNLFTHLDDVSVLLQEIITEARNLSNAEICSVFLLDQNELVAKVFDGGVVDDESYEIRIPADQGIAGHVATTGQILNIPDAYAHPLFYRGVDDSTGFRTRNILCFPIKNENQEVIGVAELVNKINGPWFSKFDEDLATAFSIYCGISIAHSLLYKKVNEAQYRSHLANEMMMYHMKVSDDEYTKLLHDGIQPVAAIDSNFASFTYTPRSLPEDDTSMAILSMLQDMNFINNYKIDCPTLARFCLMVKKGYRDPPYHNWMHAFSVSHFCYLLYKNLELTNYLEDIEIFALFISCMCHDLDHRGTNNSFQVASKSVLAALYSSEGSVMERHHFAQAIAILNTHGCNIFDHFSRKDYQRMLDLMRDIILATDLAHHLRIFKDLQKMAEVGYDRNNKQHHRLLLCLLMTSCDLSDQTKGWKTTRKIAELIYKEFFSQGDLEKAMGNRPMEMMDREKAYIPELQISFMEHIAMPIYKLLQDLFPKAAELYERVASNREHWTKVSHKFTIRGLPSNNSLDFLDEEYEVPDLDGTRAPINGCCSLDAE
Test: PDE selectivity IMAP FP assay, human PDE2A1
Assay type: biochemical
Details: Human PDE2; Lab B; read-out: Human PDE2 Ki (nM) Lab B
measured_endpoint: Ki (nM)

Sample records with Ki:
>  <molecule>
CN(C)c1nc2c(c(CF)nn2C(c2ccc(CC(F)(F)F)cc2)C2CC2)c(=O)[nH]1 (single isomer, unassigned) [Example 193]

>  <Ki, nM>
0.39

$$$$
>  <molecule>
CC(c1ccc(C(F)(F)F)cc1F)n1nc(C(F)(F)F)c2c(=O)[nH]c(O)nc21 (single isomer, unassigned) [Example 305]

>  <Ki, nM>
1.9

$$$$
>  <molecule>
C[C@@H](c1ccc(C(C)(C)C)cc1)n1nc(CF)c2c(=O)[nH]c(O)nc21

>  <Ki, nM>
5.1

$$$$
>  <molecule>
CC(c1ccc(C(C)(F)F)cc1F)n1nc(CO)c2c(=O)[nH]c(N(C)C)nc21 (single isomer, unassigned) [Example 109]

>  <Ki, nM>
8

$$$$

1: CC(c1ccc(C(F)(F)F)c(F)c1)n1nc(CF)c2c(=O)[nH]c(N(C)C)nc21 (single isomer, unassigned) [Example 169]
2: CC(C)C(c1ccc(C(F)(F)F)c(F)c1)n1nc(CC(F)(F)F)c2c(=O)[nH]c(O)nc21 (single isomer, unassigned)
3: CN(C)c1nc2c(c(CO)nn2C(c2ccc(OC(F)F)c(F)c2)C2CC2)c(=O)[nH]1 (single isomer, unassigned) [Example 123]
4: CC(C)C(c1ccc(C(C)(F)F)c(F)c1)n1nc(CF)c2c(=O)[nH]c(N(C)C)nc21 (single isomer, unassigned) [Example 219]
Request: Thanks in advance: please rank these 4 entries by Ki, highest to lowest. Thanks in advance for listing the labels in the requested order.
Response: 2, 3, 1, 4
